tested on: SF-539; assay: NCI tumour cell line growth inhibition, 48 h
The source made the active and inactive calls. No stated cut-off is given here; in the data, active = GI50 up to about 1.1 µM and inactive = higher.
The categories you may choose from are y = active, n = inactive

### Prompt Identify the outcome logged in this assay for the molecule shown: `COCN1CCN=c2c1c1c3c(c4ccccc4n23)CCC1`
### Response n

### Prompt Identify the outcome logged in this assay for the molecule shown: `CC(C)(C)SC1=CCC[C@@H](P(=O)(c2ccccc2)c2ccccc2)[C@@H]2CCC[C@@H]12`
### Response n

### Prompt Identify the outcome logged in this assay for the molecule shown: COC(=O)C1(Cc2cccc(C)c2)Cc2c(C)cccc2C1=O (centres undefined)
### Response n

### Prompt Identify the outcome logged in this assay for the molecule shown: `COc1ccc2c(c1)c1c3c(ccc4ncn2c43)N(CCO)CCN=1`
### Response y

### Prompt Identify the outcome logged in this assay for the molecule shown: `COc1ccc(/C=N/NC(=S)Nc2cc(C)ccc2OC)cc1`
### Response n

### Prompt Identify the outcome logged in this assay for the molecule shown: `CCCNc1[nH]c(C(C)=O)c(N)c1C(=S)Nc1ccccc1`
### Response n

### Prompt Identify the outcome logged in this assay for the molecule shown: [N-]=[N+]=NC(c1cn(C2CC(O)C(CO)O2)c(=O)[nH]c1=O)C(Br)Br (centres undefined)
### Response n

### Prompt Identify the outcome logged in this assay for the molecule shown: O=C1C(N2C(=O)c3ccccc3C2=O)CN1C(COCc1ccccc1)c1ccc(OCc2ccccc2)cc1 (centres undefined)
### Response n
